Assignment: determine reported pIC50 for the given compounds.
molecular target: human Nav1.7 (Homo sapiens, UniProt Q15858); construct: expressed in transfected cells; host or cells: HEK293; experiment: Nav 1.7 IWB In Vitro Assay (IonWorks Barracuda); format: cell-based; conditions: HEK293 cells stably transfected with human Nav 1.7; IonWorks Barracuda population patch-clamp; cells clamped to −20 mV for 4 minutes with compound; 26th pulse; read-out: hNav1.7 IWB IC50
Sequence (Q15858 whole entry): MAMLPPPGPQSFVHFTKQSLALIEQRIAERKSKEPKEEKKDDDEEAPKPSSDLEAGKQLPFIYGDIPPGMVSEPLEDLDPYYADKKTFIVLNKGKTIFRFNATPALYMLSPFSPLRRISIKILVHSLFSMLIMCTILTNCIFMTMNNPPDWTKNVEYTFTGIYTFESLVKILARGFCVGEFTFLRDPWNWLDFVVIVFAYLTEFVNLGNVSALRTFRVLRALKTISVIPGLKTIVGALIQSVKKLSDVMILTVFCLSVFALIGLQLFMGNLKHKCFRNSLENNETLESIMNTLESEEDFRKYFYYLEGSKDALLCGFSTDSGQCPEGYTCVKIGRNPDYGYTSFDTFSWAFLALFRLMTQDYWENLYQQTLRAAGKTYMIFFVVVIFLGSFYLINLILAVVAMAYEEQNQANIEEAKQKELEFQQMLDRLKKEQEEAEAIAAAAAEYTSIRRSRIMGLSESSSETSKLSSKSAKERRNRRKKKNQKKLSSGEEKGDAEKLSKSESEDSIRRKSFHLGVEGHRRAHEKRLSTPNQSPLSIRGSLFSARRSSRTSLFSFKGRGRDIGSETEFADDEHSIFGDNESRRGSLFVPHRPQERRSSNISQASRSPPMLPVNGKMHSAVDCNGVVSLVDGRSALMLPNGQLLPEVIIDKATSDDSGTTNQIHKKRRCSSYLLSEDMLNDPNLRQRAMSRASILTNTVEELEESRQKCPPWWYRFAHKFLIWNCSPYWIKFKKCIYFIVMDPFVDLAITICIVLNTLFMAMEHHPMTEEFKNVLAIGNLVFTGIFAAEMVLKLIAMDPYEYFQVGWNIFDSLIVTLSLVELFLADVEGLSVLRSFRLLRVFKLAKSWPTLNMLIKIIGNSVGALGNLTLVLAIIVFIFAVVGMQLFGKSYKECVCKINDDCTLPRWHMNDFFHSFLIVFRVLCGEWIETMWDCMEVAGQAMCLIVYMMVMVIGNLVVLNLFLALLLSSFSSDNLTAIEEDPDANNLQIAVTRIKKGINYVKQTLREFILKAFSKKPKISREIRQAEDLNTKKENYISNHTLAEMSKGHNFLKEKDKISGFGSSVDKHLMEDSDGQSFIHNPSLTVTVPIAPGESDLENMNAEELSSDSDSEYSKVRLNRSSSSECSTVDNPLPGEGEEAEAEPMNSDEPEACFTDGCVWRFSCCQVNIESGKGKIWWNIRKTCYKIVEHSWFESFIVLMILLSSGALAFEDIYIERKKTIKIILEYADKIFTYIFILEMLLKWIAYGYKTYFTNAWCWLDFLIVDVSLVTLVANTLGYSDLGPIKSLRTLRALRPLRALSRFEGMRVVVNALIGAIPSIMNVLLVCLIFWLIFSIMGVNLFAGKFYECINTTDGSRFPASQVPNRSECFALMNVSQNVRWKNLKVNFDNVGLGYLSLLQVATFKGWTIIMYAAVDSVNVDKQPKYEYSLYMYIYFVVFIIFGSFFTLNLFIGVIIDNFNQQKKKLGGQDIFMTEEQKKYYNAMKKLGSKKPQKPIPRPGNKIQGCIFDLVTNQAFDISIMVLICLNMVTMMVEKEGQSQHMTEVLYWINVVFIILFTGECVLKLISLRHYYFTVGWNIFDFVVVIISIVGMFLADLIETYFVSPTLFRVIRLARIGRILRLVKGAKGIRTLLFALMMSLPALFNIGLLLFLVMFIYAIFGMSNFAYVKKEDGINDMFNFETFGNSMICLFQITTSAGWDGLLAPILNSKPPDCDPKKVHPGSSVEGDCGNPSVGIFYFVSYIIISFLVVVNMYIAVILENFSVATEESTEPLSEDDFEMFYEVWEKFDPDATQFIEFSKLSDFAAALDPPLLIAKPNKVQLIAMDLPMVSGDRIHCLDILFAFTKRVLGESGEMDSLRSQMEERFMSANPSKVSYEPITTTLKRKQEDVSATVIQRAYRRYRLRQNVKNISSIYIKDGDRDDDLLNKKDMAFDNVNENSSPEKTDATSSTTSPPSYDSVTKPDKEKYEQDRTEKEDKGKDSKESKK
Give bare numbers, as −log10 of the molar value.

In the examples that follow, each entry is paired with its recorded pIC50.
> print(dat)
                                   compound  result.type  measured.result
1  COc1cc(-c2cccc(C(F)(F)F)c2)c(Cl)cc1-n1c2c(ccc1=O)CN(S(=O)(=O)Nc1cccnn1)CC2 (racemic) [Example 91-(Rac)]        pIC50             7.95
2  COc1cc(-c2cc(F)cc(Cl)c2)c(F)cc1-n1c2c(ccc1=O)CN(S(=O)(=O)Nc1ccon1)CC2 (single isomer, unassigned) [Example 18-P]        pIC50             8.41

Quick batch: pIC50 for everything below.
1. COc1cc(-c2cc(F)cc(F)c2)c(F)cc1-n1c2c(ccc1=O)CN(S(=O)(=O)Nc1ccncn1)CC2
2. COc1cc(-c2ccc(F)c(C(F)F)c2)c(F)cc1-n1c2c(ccc1=O)CN(S(=O)(=O)Nc1cccnn1)CC2
3. COc1cc(-c2cc(F)cc(Cl)c2)c(F)cc1-n1c2c(ccc1=O)CN(S(=O)(=O)Nc1cc(C)ncn1)CC2 (single isomer, unassigned) [Example 4-P]
4. COc1cc(-c2cc(F)cc(F)c2)c(F)cc1-n1c2c(ccc1=O)CN(S(=O)(=O)Nc1ncon1)CC2 (single isomer, unassigned) [Example 17-M]

[out]
1: 7.51; 2: 7.76; 3: 7.50; 4: 7.46
